# EC50 values compiled below
Target: UniProt:P10827
Sequence (P10827 128-410 isoform P10827-2 limits assumed): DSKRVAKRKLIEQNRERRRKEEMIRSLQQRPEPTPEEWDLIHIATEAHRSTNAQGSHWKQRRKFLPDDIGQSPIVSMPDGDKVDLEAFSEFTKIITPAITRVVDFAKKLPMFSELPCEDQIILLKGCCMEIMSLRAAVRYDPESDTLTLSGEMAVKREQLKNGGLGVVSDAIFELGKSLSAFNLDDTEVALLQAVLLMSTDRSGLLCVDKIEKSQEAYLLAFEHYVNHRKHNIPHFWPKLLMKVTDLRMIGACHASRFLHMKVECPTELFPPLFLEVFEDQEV
Assay: Thyroid-hormone reporter-gene assay, TRα (Gal4 DBD hybrid, luciferase, HEK293)
Conditions: reporter cells derived from HEK293, 24 hr incubation, luciferase readout
Experimental: Compounds were tested for thyroid-hormone receptor activity using TR reporter-gene assays. Reporter cells used in the assays express a TR-receptor hybrid (either TRα or TRβ) in which the native N-terminal DNA binding domain (DBD) has been replaced with that of the yeast Gal4 DBD. […] At the 24 h assay endpoint, treatment media were discarded and […] of luciferase detection reagent was added. Relative luminometer units (RLUs) were quantified from each assay well.

- molecule: "N#Cc1cccc(-c2cc(Cc3c(Cl)cc(OCC(=O)O)cc3Cl)ccc2O)c1"
  result: "100 to 1000 nM"
- molecule: "O=C(O)COc1cc(Cl)c(Cc2ccc(O)c(-c3cc(Cl)cs3)c2)c(Cl)c1"
  result: "> 1000 nM"

What EC50 value was documented for this molecule, CCCc1cccc(-c2cc(Cc3c(Cl)cc(OCC(=O)O)cc3Cl)ccc2O)c1 ?
> 1000 nM

What EC50 value was documented for this molecule, CC(C)c1cccc(-c2cc(Cc3c(Cl)cc(OCC(=O)O)cc3Cl)ccc2O)c1 ?
> 1000 nM

What EC50 value was documented for this molecule, O=C(O)COc1cc(Cl)c(Cc2ccc(O)c(-c3ccsc3)c2)c(Cl)c1 ?
> 1000 nM

What EC50 value was documented for this molecule, C[C@@H](c1ccc(F)cc1)c1cc(Cc2c(Cl)cc(OCC(=O)O)cc2Cl)ccc1O (single isomer, unassigned) ?
> 1000 nM

What EC50 value was documented for this molecule, Cc1cccc(-c2cc(Cc3c(Cl)cc(OCC(=O)O)cc3Cl)ccc2O)c1 ?
> 1000 nM

What EC50 value was documented for this molecule, CC(=O)c1cccc(-c2cc(Cc3c(Cl)cc(OCC(=O)O)cc3Cl)ccc2O)c1 ?
> 1000 nM

What EC50 value was documented for this molecule, CCC(c1ccc(F)cc1)c1cc(Cc2c(Cl)cc(OCC(=O)O)cc2Cl)ccc1O (stereo not drawn) ?
100 to 1000 nM

----------
# EC50 values compiled below
Biological target: TRβ (Homo sapiens)
Construct: expressed in transfected cells; host or cells: HEK293
Sequence (P10828 217-461 limits assumed): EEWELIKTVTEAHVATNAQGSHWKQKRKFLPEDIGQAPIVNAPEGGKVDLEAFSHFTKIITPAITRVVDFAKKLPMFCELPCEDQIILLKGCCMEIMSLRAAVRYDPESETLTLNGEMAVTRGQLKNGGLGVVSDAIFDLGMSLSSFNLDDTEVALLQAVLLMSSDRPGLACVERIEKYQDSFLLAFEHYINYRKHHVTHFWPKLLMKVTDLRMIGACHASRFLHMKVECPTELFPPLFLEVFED
Test: Thyroid-hormone reporter-gene assay, TRβ (Gal4 DBD hybrid, luciferase, HEK293)
Format: cell-based
Settings: reporter cells derived from HEK293, 24 hr incubation, luciferase readout
Description: Compounds were tested for thyroid-hormone receptor activity using TR reporter-gene assays. Reporter cells used in the assays express a TR-receptor hybrid (either TRα or TRβ) in which the native N-terminal DNA binding domain (DBD) has been replaced with that of the yeast Gal4 DBD. […] At the 24 h assay endpoint, treatment media were discarded and […] of luciferase detection reagent was added. Relative luminometer units (RLUs) were quantified from each assay well.

Worked examples, 3 compounds total:
- compound: "O=C(O)COc1cc(Cl)c(Cc2ccc(O)c(C(c3ccc(F)cc3)C(F)(F)F)c2)c(Cl)c1 (stereo not shown) [Compound 125]"
  EC50: "10 to 100 nM"
- compound: "O=C(O)COc1cc(Cl)c(Cc2ccc(O)c(-c3cccc(C(F)(F)F)c3F)c2)c(Cl)c1 [Compound 49]"
  EC50: "100 to 1000 nM"
- compound: "O=C(O)COc1cc(Cl)c(Cc2ccc(O)c(-c3cccc(OC(F)F)c3F)c2)c(Cl)c1 [Compound 56]"
  EC50: "100 to 1000 nM"

Please turn your attention to the following entry.
What EC50 value was documented for this compound, CCCC(c1ccc(F)cc1)c1cc(Cc2c(Cl)cc(OCC(=O)O)cc2Cl)ccc1O (stereo not shown) [Compound 102] ?
100 to 1000 nM
